test system: A498 renal; assay: NCI tumour cell line growth inhibition, 48 h
Reported GI50 values for the following compounds.
MEASURED ENDPOINT: GI50

{"columns": ["COMPOUND", "MEASURED ENDPOINT", "RECORDED RESULT"],
 "data": [
  ["CC(=O)/C(=C\\c1c(-c2ccccc2)[nH]c2ccccc12)S(=O)(=O)c1ccccc1", "GI50", "5.44 µM"],
  ["O=S(=O)(NCCO)c1cc[c]([Sb](=[O])([OH])[OH])cc1", "GI50", "> 100 µM"],
  ["CCCCCSC1C2C(=O)C(Br)=CC13CCNc1c(O)c4c5c(c13)=[N+]2CCC=5C=N4 (centres undefined)", "GI50", "3.01 µM"],
  ["COc1cc(NC(C)CCCN)c2ncccc2c1Sc1ccc(Cl)cc1 (centres undefined)", "GI50", "3.65 µM"]
]}
